- Test system: STAPHYLOCOCCUS AUREUS CMX 553
- experiment-description: In vitro antibacterial activity, MIC, BHI agar dilution
- Format: cell-based
- experimental-setup: S. aureus CMX 553, unit assumed
measured-metric: MIC (µg/mL)

INSERT INTO results (compound, target_desc, reported_value) VALUES
  ('CCC1OC(=O)C(C)C(=O)C(C)C(OC2OC(C)CC(N(C)C)C2O)C(C)(OC)CC(C)C2=NCC(CSc3ccccc3)(CN(C)Cc3ccccc3)N3C(=O)OC1(C)C3C2C (stereo not drawn)', 'STAPHYLOCOCCUS AUREUS CMX 553', 1.56),
  ('CC[C@H]1OC(=O)[C@H](C)C(=O)[C@H](C)[C@@H](O[C@@H]2O[C@H](C)C[C@H](N(C)C)[C@H]2O)[C@](C)(OC)C[C@@H](C)C2=NC3CN(CCOC)CC3N3C(=O)O[C@@]1(C)[C@H]3[C@H]2C (stereo partly drawn)', 'STAPHYLOCOCCUS AUREUS CMX 553', 1.56),
  ('CC[C@H]1OC(=O)[C@H](C)C(=O)[C@H](C)[C@@H](O[C@@H]2O[C@H](C)C[C@H](N(C)C)[C@H]2O)[C@](C)(OC)C[C@@H](C)C2=N[C@H](COCc3ccccc3)CN3C(=O)O[C@@]1(C)[C@H]3[C@H]2C', 'STAPHYLOCOCCUS AUREUS CMX 553', 0.2);

These data points were gathered from patent US6274715A.
